molecular target: Cyclin-dependent kinase 2/cyclin A; experiment: Inhibition of CDK2/cyclin A (unknown origin)
metric_name: pIC50
Convention used: pIC50 is expressed as -log10 of the molar concentration.

QUERY: Endpoint output: pIC50 of "O=C(Nc1csc(Cc2c(Cl)cccc2Cl)n1)NN1CCOCC1" . Value?
RESULT: 5.00
